Tested on: P388 leukemia ip, CD2F1 mice, survival T/C
procedure_summary: NCI In Vivo Anticancer Drug Screen. Data for tumor model P388 Leukemia (intraperitoneal) in CD2F1 (CDF1) mice
assay_context: endpoint: median survival time; dose: 100.0 mg/kg/injection; schedule: Q04DX002 (ip); vehicle: saline; higher = longer survival
Inconclusive results and toxic doses are left out.
reported_property: T/C

# value lookup — system P388 leukemia ip, CD2F1 mice, survival T/C, readout T/C, item "CC(C)(C)c1cc(C2C(=O)c3ccccc3C2=O)cc(C(C)(C)C)c1O" 110 % of control

# value lookup — system P388 leukemia ip, CD2F1 mice, survival T/C, readout T/C, item C=C1CC2(CCCCC2C(C)(C)C)OC1=O (centres undefined) 100 % of control

# value lookup — system P388 leukemia ip, CD2F1 mice, survival T/C, readout T/C, item "O=C1CC(=O)NP(=O)(Oc2ccccc2)N1" 103 % of control

# value lookup — system P388 leukemia ip, CD2F1 mice, survival T/C, readout T/C, item COc1ccc(C(=O)C(Br)CS(=O)(=O)c2ccc(C)cc2)cc1 (centres undefined) 100 % of control

# value lookup — system P388 leukemia ip, CD2F1 mice, survival T/C, readout T/C, item CC12CCC(OC3CCCCO3)CC1=CCC1C2CCC2(C)C(O)/C(=N\O)CC12 (centres undefined) 91 % of control

# value lookup — system P388 leukemia ip, CD2F1 mice, survival T/C, readout T/C, item CC1(C)OCC(C2OC3OC(C)(C)OC3C2(O)/C(N)=N/O)O1 (centres undefined) 103 % of control

# value lookup — system P388 leukemia ip, CD2F1 mice, survival T/C, readout T/C, item "Cc1ccc(S(=O)(=O)ONNc2nccc3ccccc23)cc1" 103 % of control

# value lookup — system P388 leukemia ip, CD2F1 mice, survival T/C, readout T/C, item "O=C1c2ccccc2C(=O)N1c1ccc(Cl)cc1[N+](=O)[O-]" 99 % of control

# value lookup — system P388 leukemia ip, CD2F1 mice, survival T/C, readout T/C, item COc1cc2c(cc1OC)C(C)P(C)(=O)CC2O (centres undefined) 109 % of control
